Test system: MCF7 breast
method.notes: NCI-60 one-dose screen, 48 h (100 = growth as untreated, 0 = no growth, -100 = all killed)
experimental.context: 10 µM unless noted
The panel holds about 83,000 compounds, 20% with a hit somewhere; the sample as a whole holds those more often.
Measured growth by item
Report the value in % with no unit label.

// known answers, use as guide
> print(dat)
                      smiles.representation  measurement.units  measurement
1  CS(=O)(=O)Nc1cc(-c2ccc3ncnc(Nc4ccc5c(cnn5Cc5cccc(F)c5)c4)c3c2)cnc1Cl                  %        0.881
2     COc1cc2cc(NCc3cccc(Cl)c3)nc(C)c2cc1OC                  %         55.4

Any idea what its growth is? The molecule is CCOC(=O)NC(C)C
106

###

System: SNB-19 CNS
method.notes: NCI-60 one-dose screen, 48 h (100 = growth as untreated, 0 = no growth, -100 = all killed)
experimental.context: 10 µM unless noted
About 83,000 compounds went through this panel and 20% of them were active in at least one assay; those are over-represented in the sample as a whole.
readout.label: growth (%)
Express your answer in %, writing the number without its unit.

> print(dat)
                      smiles.representation  measurement
1      Nc1nc(N)c(-c2ccc(Cl)c(Cl)c2)c(CBr)n1           94
2  COC(=O)c1c(C)nc(C)c2c1C(=O)C(Br)=C(NCc1ccccc1)C2=O         41.7
3  Cc1ccc(-c2nc([P+](c3ccccc3)(c3ccccc3)c3ccccc3)c(S(=O)(=O)c3ccc(C)cc3)o2)cc1         53.5

Name the recorded growth for CC(C)COc1nc2c(c(=O)n(C)c(=O)n2C)n1C .
99.9

Also need N#Cc1nc(-c2ccc(F)cc2)oc1S(=O)(=O)N1CCCCC1 , thanks.
96.5

###

Test system: MDA-MB-435 melanoma
method.notes: NCI-60 one-dose screen, 48 h (100 = growth as untreated, 0 = no growth, -100 = all killed)
experimental.context: 10 µM unless noted
About 83,000 compounds went through this panel and 20% of them were active in at least one assay; those are over-represented in the sample as a whole.
readout.label: growth (%)
Reply numerically in %, unit not repeated.

> print(dat)
                      smiles.representation  measurement
1  O=C(Nn1c2c(sc1=NC1CC1)C(=O)c1ccccc1C2=O)c1cc2ccc1CCc1ccc(cc1)CC2        -93.2
2  NC(=O)c1c(NC(=O)c2ccc3ccccc3c2)sc2c1CCC(=O)C2         92.8
3  Cn1ccc(=O)c(C(=O)Nc2nsc3ccc([N+](=O)[O-])cc23)c1         75.6

What does the record list as growth for CCN1CCN(C(=O)[C@]23CCC(C)(C)C[C@@H]2C2=CC[C@@H]4[C@@]5(C)CCC(=O)C(C)(C)[C@@H]5CC[C@@]4(C)[C@]2(C)CC3)CC1 ?
33.9

###

molecules and their reported growth
Tested on: SNB-19 CNS
method.notes: NCI-60 one-dose screen, 48 h (100 = growth as untreated, 0 = no growth, -100 = all killed)
experimental.context: 10 µM unless noted
This is part of a sample that, as a whole, favours compounds with a hit. Of some 83,000 tested, about 20% had one in any assay. Calls of active or inactive are those of the source. The calls were made as follows: active = growth percent below 10; inactive = the rest.

Some solved entries appear below for comparison.
molecule	readout.label	measurement
COc1cc2c(c(OC)c1OC)CCC(c1cccc(C(=O)Nc3cccc(Cl)c3)c1)O2 (centres undefined)	growth	76.5% (inactive)
O=C(Nc1ccc(OS(=O)(=O)c2ccc(F)cc2)cc1)C1CCCCCC1	growth	89.4% (inactive)
CCSC(SCC)c1ccc(Cl)cc1	growth	110% (inactive)
COC1=CC(c2ccc[nH]2)=N/C1=C\c1[nH]c(C)c(CC(=O)NCc2ccccc2)c1C	growth	-1.25% (active)
C[PH+](c1nc2ccccc2nc1[PH+](C)C(C)(C)C)C(C)(C)C.C[PH+](c1nc2ccccc2nc1[PH+](C)C(C)(C)C)C(C)(C)C.[Au+].[Cl-] (centres undefined)	growth	-100% (active)

# input molecule: CC(=O)n1nc(C(=O)OC(C)(C)c2ccccc2)c2ccccc21 ; wanted: its growth
95.7% (inactive)

O=C(N(c1ccccc1)c1ccccc1)n1cc(I)c2nc(Cl)nc(Cl)c21 , same question.
46.8% (inactive)

Then what about the molecule O=C(CSc1nnc(-c2cnccn2)n1-c1ccccc1)c1ccc(Cl)cc1 ?
101% (inactive)

Next record, please: O=C(COc1ccc(-c2nc3cc(Cl)c(Cl)cc3[nH]2)cc1)N=Nc1c(O)[nH]c2ccc(Cl)cc12
56.7% (inactive)
